target: UniProt P34972; experiment: Agonist activity at human CB2 receptor expressed in CHO cells at 10 uM by [35]GTPgammaS binding assay relative to HU210; type: functional, cell-based
Sequence (P34972 whole entry): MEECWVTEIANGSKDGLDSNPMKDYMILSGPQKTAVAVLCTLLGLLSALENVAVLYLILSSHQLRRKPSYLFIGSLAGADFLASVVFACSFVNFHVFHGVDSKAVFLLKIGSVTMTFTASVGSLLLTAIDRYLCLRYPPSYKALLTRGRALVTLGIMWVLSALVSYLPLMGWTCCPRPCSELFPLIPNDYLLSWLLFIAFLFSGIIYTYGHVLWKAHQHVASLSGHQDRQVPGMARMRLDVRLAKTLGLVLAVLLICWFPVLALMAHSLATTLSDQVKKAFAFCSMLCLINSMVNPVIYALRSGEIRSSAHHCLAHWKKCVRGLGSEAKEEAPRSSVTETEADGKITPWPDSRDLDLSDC
Label fulfilled when Emax < 60%; otherwise not fulfilled.

>>> class_label("O=C(c1ccc(Cl)cc1)c1ccc2ccccc2n1")
"not fulfilled"
>>> class_label("O=C(c1ccccc1C(F)(F)F)c1nccc2ccccc12")
"not fulfilled"
>>> class_label("CN(C)c1ccccc1C(=O)c1ccc2ccccc2n1")
"not fulfilled"
>>> class_label("COc1ccccc1C(=O)c1ccc2ccccc2n1")
"fulfilled"
>>> class_label("CN(C)c1ccccc1C(=O)c1nccc2ccccc12")
"not fulfilled"

--- query ---
[Q] Please indicate whether the reported Emax of COc1cccc(C(=O)c2ccc3ccccc3n2)c1 is strictly below 60%.
[A] fulfilled
